Target: T1, Anti-PSMA Fab (biotinylated (site not stated))
T1 construct: also called 006 PSMA Fab
Assay: clonal phage ELISA on captured PSMA Fab, wells pre-incubated with PSMA antigen as competitor, anti-M13 HRP detection;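 note: crude clonal phage supernatants added, with no intervening wash, to wells preincubated with PSMA antigen in blocking buffer, incubated briefly, then washed before detecting bound phage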
Phage binding ELISA signal, Anti-PSMA Fab with PSMA antigen strictly less than 0.09 = rule met. Otherwise rule not met.

- BINDER: "VVNFCKPQWMCSGF (Clonal phage of the Peptide-180 library) [Phage-3561]"
  ASSIGNED LABEL: "rule met"
- BINDER: "TERVCVPDWMCAGF (Clonal phage of the Peptide-180 library) [Phage-3547]"
  ASSIGNED LABEL: "rule not met"
- BINDER: "TYFRCEPSWMCTGL (Clonal phage of the Peptide-180 library) [Phage-3559]"
  ASSIGNED LABEL: "rule met"
- BINDER: "TPPFCIPKWMCQGF (Clonal phage of the Peptide-180 library) [Phage-3548]"
  ASSIGNED LABEL: "rule not met"
- BINDER: "VDRLCVPNWMCMGL (Clonal phage of the Peptide-180 library) [Phage-3552]"
  ASSIGNED LABEL: "rule met"
- BINDER: "MERWCIPVWMCQGL (Clonal phage of the Peptide-180 library) [Phage-3560]"
  ASSIGNED LABEL: "rule met"
- BINDER: "VEPACVPLWMCFGL (Clonal phage of the Peptide-180 library) [Phage-3558]"
  ASSIGNED LABEL: "rule met"
- BINDER: "VVPLCVPMWMCSPM (Clonal phage of the Peptide-180 library) [Phage-3557]"
  ASSIGNED LABEL: "rule met"
- BINDER: "MNIMCRPVWMCTGL (Clonal phage of the Peptide-180 library) [Phage-3549]"
  ASSIGNED LABEL: "rule not met"
- BINDER: "QSMMCIPSWMCVGF (Clonal phage of the Peptide-180 library) [Phage-3556]"
  ASSIGNED LABEL: "rule met"
- BINDER: "LAVRCIPEWMCYGL (Clonal phage of the Peptide-180 library) [Phage-3555]"
  ASSIGNED LABEL: "rule met"
- BINDER: "IEKVCVPAWMCMGF (Clonal phage of the Peptide-180 library) [Phage-3551]"
  ASSIGNED LABEL: "rule not met"
- BINDER: "AGMMCTPPWMCFGF (Clonal phage of the Peptide-180 library) [Phage-3554]"
  ASSIGNED LABEL: "rule met"
